System name: pseudo-kinase domain (JH2, amino-acids 536-812) of human V617F mutant JAK2 (Homo sapiens, UniProt O60674, F794H/V617F/W659A/W777A)
Construct: pseudo-kinase domain (JH2, amino-acids 536-812 with 3 surface mutations W659A, W777A, F794H)
Sequence (O60674 536-812 V617F/W659A/W777A/F794H): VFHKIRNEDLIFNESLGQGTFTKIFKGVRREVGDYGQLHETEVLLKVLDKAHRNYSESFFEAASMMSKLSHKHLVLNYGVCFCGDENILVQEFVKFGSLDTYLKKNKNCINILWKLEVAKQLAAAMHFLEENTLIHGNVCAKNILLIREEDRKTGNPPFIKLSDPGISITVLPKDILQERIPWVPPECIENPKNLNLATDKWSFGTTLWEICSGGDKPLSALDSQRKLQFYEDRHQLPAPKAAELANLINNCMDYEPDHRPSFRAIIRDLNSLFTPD
Test description: JAK2 LanthaScreen JH2-V617F Binding Assay
Measurement parameters: 1 hour at 25° C.
Counter-ions that a name gives are not always drawn.
Reported endpoint: IC50

CCCC(=O)N1CCC2(CC1)CC1(C2)C(=O)N(C)c2cnc3[nH]c(-c4cnn(C)c4)c(-c4ccc5c(cnn5C)c4)c3c21 [Example 59, trifluoroacetate salt]
≤ 100 nM

For each of the molecules below, state IC50.
1. COc1c(F)cc(-c2c(-c3cnn(CC(C)(C)O)c3)[nH]c3ncc4c(c23)C2(CCN(C3(CC#N)CCC3)CC2)C(=O)N4C)cc1F [Example 47, trifluoroacetate salt]
2. CC(CC#N)n1cc(-c2ccc(-c3c(-c4cnn(C)c4)[nH]c4ncc5c(c34)C3(CCCC3)C(=O)N5C)cc2)cn1 (racemic) [Example 14, trifluoroacetate salt]

1. ≤ 100 nM
2. 100 to 500 nM

For each of the molecules below, state IC50.
1. CN1C(=O)C2(CCN(C3(CC#N)CCC3)CC2)c2c1cnc1[nH]c(-c3cnn(C)c3)c(-c3ccc4c(cnn4C)c3)c21 [Example 31, trifluoroacetate salt]
2. O=C(O)C(F)(F)F.[2H]C([2H])([2H])n1ccc2cc(-c3c(-c4cnn(CCOC)c4)[nH]c4ncc5c(c34)C3(CCN(C4(CC#N)CCC4)CC3)C(=O)N5C)ccc21

1. ≤ 100 nM
2. ≤ 100 nM

###

System name: catalytic domain (JH1, amino acids 808-1132) of human JAK2 (Homo sapiens, UniProt O60674)
Construct: catalytic domain (JH1, amino acids 808-1132) of human JAK2; His (N)
Sequence (O60674 808-1132): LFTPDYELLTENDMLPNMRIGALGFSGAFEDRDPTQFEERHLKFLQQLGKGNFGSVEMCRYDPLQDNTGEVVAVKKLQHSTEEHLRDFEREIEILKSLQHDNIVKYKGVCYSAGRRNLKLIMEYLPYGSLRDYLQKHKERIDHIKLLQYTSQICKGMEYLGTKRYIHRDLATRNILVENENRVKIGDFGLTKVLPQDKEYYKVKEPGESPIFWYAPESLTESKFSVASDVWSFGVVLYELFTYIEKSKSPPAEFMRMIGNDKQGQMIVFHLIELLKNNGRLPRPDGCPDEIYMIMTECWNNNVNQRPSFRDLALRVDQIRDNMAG
Test description: JAK2 HTRF Enzyme Activity Assay
Measurement parameters: ATP 30 μM, read-out: ENZ 30UMATP
Counter-ions that a name gives are not always drawn.
Reported endpoint: IC50

Examples with their reported IC50 follow.
CCS(=O)(=O)N1CC2(C1)CC1(C2)C(=O)N(C)c2cnc3[nH]c(-c4cnn(CC5CC5)c4)c(-c4ccc5c(cnn5C)c4)c3c21 [Example 87, trifluoroacetate salt]
1.25 to 2.5 µM
CCS(=O)(=O)N1CCC[C@@]2(CC1)C(=O)N(C)c1cnc3[nH]c(-c4cnn(C(C)C)c4)c(-c4ccc5c(cnn5C)c4)c3c12 (single isomer, unassigned) [Example 53b]
0.1 to 0.5 µM

For CCS(=O)(=O)N1CCC[C@]2(CC1)C(=O)N(C)c1cnc3[nH]c(-c4cnn(C(C)C)c4)c(-c4ccc5c(cnn5C)c4)c3c12 (single isomer, unassigned) [Example 53a] , what is its reported IC50?
> 2.5 µM

###

System name: catalytic domain (JH1, amino acids 826-1132) of human JAK2 (Homo sapiens, UniProt O60674)
Construct: catalytic domain (JH1, amino acids 826-1132) of human JAK2
Sequence (O60674 826-1132): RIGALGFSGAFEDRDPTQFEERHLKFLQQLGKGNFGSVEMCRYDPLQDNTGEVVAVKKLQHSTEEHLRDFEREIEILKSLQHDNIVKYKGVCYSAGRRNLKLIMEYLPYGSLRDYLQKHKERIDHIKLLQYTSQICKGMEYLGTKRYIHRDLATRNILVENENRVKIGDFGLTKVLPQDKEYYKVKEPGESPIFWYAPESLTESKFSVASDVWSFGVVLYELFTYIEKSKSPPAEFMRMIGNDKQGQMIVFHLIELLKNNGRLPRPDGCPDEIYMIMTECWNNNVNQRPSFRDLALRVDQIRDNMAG
Test description: JAK2 LanthaScreen JH1 Binding Assay
Measurement parameters: 2 hours at 25° C.
Counter-ions that a name gives are not always drawn.
Reported endpoint: IC50

Examples with their reported IC50 follow.
CCCC(=O)N1CCC2(CC1)CC1(C2)C(=O)N(C)c2cnc3[nH]c(-c4cnn(C)c4)c(-c4ccc5c(cnn5C)c4)c3c21 [Example 59, trifluoroacetate salt]
1.25 to 2.5 µM
COc1cccc(NC(=O)N2CCC3(CC2)C(=O)N(C)c2cnc4[nH]c(-c5ccc(CN6CCC(S(C)(=O)=O)CC6)cc5)c(-c5ccccc5)c4c23)c1 [Example 21, trifluoroacetate salt]
> 2.5 µM
CCS(=O)(=O)c1ccc(-c2[nH]c3ncc4c(c3c2-c2ccc3c(cnn3C)c2)C2(CCN(C3(CC#N)CCC3)CC2)C(=O)N4C)cc1 [Example 35, trifluoroacetate salt]
0.5 to 1.25 µM
CN1C(=O)C2(CCCCC2)c2c1cnc1[nH]c(-c3ccc(CN4CCC(S(C)(=O)=O)CC4)cc3)c(-c3ccccc3)c21 [Example 11, trifluoroacetate salt]
> 2.5 µM
CN1C(=O)C2(CCN(CC3(CC#N)CC4(CCC4)C3)C2)c2c1cnc1[nH]c(-c3cnn(C)c3)c(-c3ccc4c(cnn4C)c3)c21 (racemic)
> 2.5 µM

For each of the compounds below, state IC50.
1. CC(=O)NC12CC(N3CCC4(CC3)C(=O)N(C)c3cnc5[nH]c(-c6cnn(C)c6)c(-c6ccc7c(cnn7C)c6)c5c34)(C1)C2
2. CN1C(=O)C2(CCN(C3(CC#N)CCC3)CC2)c2c1cnc1[nH]c(-c3ccn(C)c3)c(-c3ccc4c(cnn4C)c3)c21 [Example 42, trifluoroacetate salt]
3. [2H]C([2H])([2H])N1C(=O)C2(CCCN(S(=O)(=O)C3(C)CC3)CC2)c2c1cnc1[nH]c(-c3cnn(C(C)C)c3)c(-c3ccc4c(cnn4C)c3)c21 (single isomer, unassigned) [Example 103, trifluoroacetate salt]
4. CCc1c(-c2cnn(C)c2)[nH]c2ncc3c(c12)C1(CCN(c2ccncn2)CC1)C(=O)N3C [Example 19, trifluoroacetate salt]
5. O=C(O)C(F)(F)F.[2H]C([2H])([2H])n1ncc2cc(-c3c(-c4cnn(CC(C)(C)OC)c4)[nH]c4ncc5c(c34)C3(CC4(CN(S(=O)(=O)CC)C4)C3)C(=O)N5C)ccc21

["0.1 to 0.5 µM", "0.5 to 1.25 µM", "0.1 to 0.5 µM", "1.25 to 2.5 µM", "> 2.5 µM"]

For [2H]C([2H])([2H])n1cc(-c2[nH]c3ncc4c(c3c2-c2ccc3c(cnn3C)c2)C2(CCN(CCC#N)CC2)C(=O)N4C)cn1 , what is its reported IC50?
1.25 to 2.5 µM

###

Give IC50 for every item shown.
System name: catalytic domain (JH1, amino acids 826-1132) of human JAK2 (Homo sapiens, UniProt O60674)
Construct: catalytic domain (JH1, amino acids 826-1132) of human JAK2
Test description: JAK2 LanthaScreen JH1 Binding Assay
Measurement parameters: 2 hours at 25° C.
Where a name gives a salt, the structure may show the parent alone.

Examples with their reported IC50 follow.
CCCC(=O)N1CCC2(CC1)CC1(C2)C(=O)N(C)c2cnc3[nH]c(-c4ccn(C)c4)c(-c4ccc5c(cnn5C)c4)c3c21 [Example 64, trifluoroacetate salt]
1250 to 2500 nM
CN1C(=O)C2(CCC2)c2c1cnc1[nH]c(-c3ccc(CN4CCC(S(C)(=O)=O)CC4)cc3)c(-c3ccccc3)c21 [Example 10, trifluoroacetate salt]
> 2500 nM
CN(C)C(=O)N1CCC2(CC1)CC1(C2)C(=O)N(C)c2cnc3[nH]c(-c4cnn(C)c4)c(-c4ccc5c(cnn5C)c4)c3c21 [Example 60, trifluoroacetate salt]
1250 to 2500 nM
CCS(=O)(=O)N1CC2(C1)CC1(C2)C(=O)N(C)c2cnc3[nH]c(-c4cnn(CC(F)F)c4)c(-c4ccc5c(cnn5C)c4)c3c21 [Example 93, trifluoroacetate salt]
1250 to 2500 nM
CN1C(=O)[C@]2(CCN(CC3(CC#N)CC3)C2)c2c1cnc1[nH]c(-c3cnn(C)c3)c(-c3ccc4c(cnn4C)c3)c21 (single isomer, unassigned)
> 2500 nM
CO[C@H]1CC[C@@](CC#N)(N2CCC3(CC2)C(=O)N(C)c2cnc4[nH]c(-c5cnn(C)c5)c(-c5ccc6c(cnn6C)c5)c4c23)CC1 (single isomer, unassigned) [Example 75a]
100 to 500 nM
O=C(O)C(F)(F)F.[2H]C([2H])([2H])N1C(=O)C2(CC3(CN(S(=O)(=O)CC)C3)C2)c2c1cnc1[nH]c(-c3cnn(C(C)C)c3)c(-c3ccc4c(cnn4C)c3)c21
1250 to 2500 nM
CN1C(=O)C2(CCN(S(=O)(=O)C3(CC#N)CC3)C2)c2c1cnc1[nH]c(-c3cnn(C)c3)c(-c3ccc4c(cnn4C)c3)c21 (racemic) [Example 71, trifluoroacetate salt]
1250 to 2500 nM
O=C(O)C(F)(F)F.[2H]C([2H])([2H])n1ccc(-c2[nH]c3ncc4c(c3c2-c2ccc3c(cnn3C)c2)C2(CC3(CCN(C(=O)CCC)CC3)C2)C(=O)N4C)c1
1250 to 2500 nM
COC(=O)NC1CC(CC#N)(N2CCC3(CC2)C(=O)N(C)c2cnc4[nH]c(-c5cnn(C)c5)c(-c5ccccc5)c4c23)C1 (single isomer, unassigned)
100 to 500 nM

Now for another entry.
Param readout= IC50; system= catalytic domain (JH1, amino acids 826-1132) of human JAK2 (Homo sapiens, UniProt O60674); entry= CN1C(=O)C2(CCN(c3ccncn3)CC2)c2c1cnc1[nH]c(-c3cnn(C)c3)c(C3=CCOCC3)c21 [Example 20, trifluoroacetate salt] ; returns value.
> 2500 nM

###

Give pIC50 for every item shown.
System name: pseudo-kinase domain (JH2, amino-acids 536-812) of human V617F mutant JAK2 (Homo sapiens, UniProt O60674, F794H/V617F/W659A/W777A)
Construct: pseudo-kinase domain (JH2, amino-acids 536-812 with 3 surface mutations W659A, W777A, F794H)
Test description: JAK2 LanthaScreen JH2-V617F Binding Assay
Measurement parameters: 1 hour at 25° C.
pIC50: −log10 of the molar value.

CC(=O)NC12CC(N3CCC4(CC3)C(=O)N(C)c3cnc5[nH]c(-c6cnn(C)c6)c(-c6ccc7c(cnn7C)c6)c5c34)(C1)C2
≥ 7.00

For each of the compounds below, state pIC50.
1. CN1C(=O)C2(CCN(C(C)(C)C3CNC3)CC2)c2c1cnc1[nH]c(-c3cnn(C)c3)c(-c3ccc4c(cnn4C)c3)c21
2. CCS(=O)(=O)N1CCC[C@]2(CC1)C(=O)N(C)c1cnc3[nH]c(-c4cnn(C(C)C)c4)c(-c4ccc5c(cnn5C)c4)c3c12 (single isomer, unassigned) [Example 53a]
3. CN1C(=O)C2(Cc3ccccc3C2)c2c1cnc1[nH]c(-c3ccc(CN4CCC(S(C)(=O)=O)CC4)cc3)cc21

≥ 7.00
5.90 to 6.30
< 5.60
